target: human TRPV3 (Homo sapiens, UniProt Q8NET8); construct: expressed in transfected cells; assay: In vitro antagonism of recombinant human TRPV3 activation (FLIPR Tetra calcium assay, 2-APB as agonist); type: cell-based; conditions: HEK293 cells stably expressing human TRPV3; 2-APB 80 μM; range class; read-out: IC50 (reported range)
Sequence (Q8NET8 whole entry): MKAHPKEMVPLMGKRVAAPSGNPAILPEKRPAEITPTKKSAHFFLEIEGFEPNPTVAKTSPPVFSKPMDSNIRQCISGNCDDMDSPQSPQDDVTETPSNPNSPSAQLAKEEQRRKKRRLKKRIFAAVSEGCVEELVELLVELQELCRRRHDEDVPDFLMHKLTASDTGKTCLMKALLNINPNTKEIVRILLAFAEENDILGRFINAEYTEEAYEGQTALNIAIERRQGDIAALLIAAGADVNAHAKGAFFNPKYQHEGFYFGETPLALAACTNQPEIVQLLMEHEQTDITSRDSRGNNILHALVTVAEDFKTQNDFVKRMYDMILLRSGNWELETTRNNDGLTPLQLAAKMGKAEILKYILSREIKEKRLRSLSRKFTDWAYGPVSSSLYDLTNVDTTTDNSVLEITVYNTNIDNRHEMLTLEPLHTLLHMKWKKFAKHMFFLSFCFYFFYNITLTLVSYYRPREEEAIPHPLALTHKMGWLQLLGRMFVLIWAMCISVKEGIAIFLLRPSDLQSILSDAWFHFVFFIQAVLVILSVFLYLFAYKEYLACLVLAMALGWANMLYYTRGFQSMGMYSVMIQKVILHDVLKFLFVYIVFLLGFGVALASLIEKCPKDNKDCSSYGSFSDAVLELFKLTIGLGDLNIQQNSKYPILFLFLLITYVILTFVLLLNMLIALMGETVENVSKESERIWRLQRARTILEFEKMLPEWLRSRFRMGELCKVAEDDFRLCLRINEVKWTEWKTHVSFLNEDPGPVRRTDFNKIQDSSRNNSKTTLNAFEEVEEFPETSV
pIC50: −log10 of the molar value.
recorded metric: pIC50

Incoming: So what pIC50 did CC(c1cccc(C(F)(F)F)c1)C1(C(O)c2ccccn2)CCC1 (stereo not drawn) get with human TRPV3 (Homo sapiens, UniProt Q8NET8)?
Outgoing: < 4.70

Incoming: Then OC1CC(c2ccc(Cl)c(Cl)c2)(C(O)c2ncccn2)C1 (stereo not drawn) ?
Outgoing: 5.30 to 5.96

Incoming: Then OC(c1ccccn1)C1(c2ccc(C(F)(F)F)cc2)CCOCC1 (stereo not drawn) ?
Outgoing: 5.30 to 5.96

Incoming: Then OC(c1ccccn1)C1(c2ccc(F)c(F)c2)CCC1 (stereo not drawn) ?
Outgoing: 6.30 to 7.30

Incoming: Then O=C1CC(c2cccc(C(F)(F)F)c2)(C(O)c2ccccn2)C1 (stereo not drawn) ?
Outgoing: 5.30 to 5.96

Incoming: Then OC(c1ccccn1)C1(c2cccc(OC(F)(F)F)c2)CCC1 (stereo not drawn) ?
Outgoing: 6.30 to 7.30

###

test: In vitro human microsomal stability assay; assay type: in vitro ADME; conditions: human, 0.5 h, 0.5 μM, pH 7.4
I'd be grateful if you could share measured HUMAN MICROSOMAL STABILITY (% REMAINING AFTER 30 MINUTES) for these entries.
The answer is to be given in %; state only the numeric part.

Incoming: What value of HUMAN MICROSOMAL STABILITY (% REMAINING AFTER 30 MINUTES) has been reported for the following molecule? OC(c1ccccn1)C1(c2cccc(OC(F)(F)F)c2)CC(F)(F)C1 (stereo not drawn) [Example 114]
Outgoing: 6.9

Incoming: Then OC(C1CCc2cccnc21)C1(c2ccccc2C(F)(F)F)CCC1 (stereo not drawn) [Example 198] ?
Outgoing: 0.05

Incoming: Then OC(c1ccccn1)C1(c2cccc(OC(F)(F)F)c2)CCCO1 (stereo not drawn) [Example 93] ?
Outgoing: 12

Incoming: Then Cc1ccccc1C(C)C1(C(O)c2ccccn2)CCC1 (stereo not drawn) [Example 45] ?
Outgoing: 0.03

Incoming: Then COC1CC(c2ccc(Cl)c(Cl)c2)([C@H](O)c2ccccn2)C1 (stereo partly drawn) [Example 151] ?
Outgoing: 32

Incoming: Then O=C1CC(c2cncc(C(F)(F)F)c2)([C@H](O)c2ccccn2)C1 [Example 296] ?
Outgoing: 67

Incoming: Then OC(C1CCc2cccnc21)C1(c2ccc(F)c(F)c2)CCC1 (stereo not drawn) [Example 172] ?
Outgoing: 2.4

Incoming: Then COc1ccc(C(O)C2(c3ccc(Cl)c(Cl)c3)CCC2)nc1 (stereo not drawn) [Example 287] ?
Outgoing: 15

Incoming: Then OC(c1ccccn1)C1(c2ccccc2F)CCC1 (stereo not drawn) [Example 1] ?
Outgoing: 0.38

Incoming: Then OC(c1ccccn1)C1(c2ccc(F)c(C(F)(F)F)c2)CCC1 (stereo not drawn) [Example 15] ?
Outgoing: 5.6

Incoming: Then OC(c1ccccn1)C1(c2cccc(C(F)(F)F)c2)CC2(C1)OCCO2 (stereo not drawn) [Example 242] ?
Outgoing: 45

Incoming: Then CC1(O)CC(c2ccc(C(F)(F)F)cc2)(C(O)c2ccccn2)C1 (single isomer, unassigned) [Example 232] ?
Outgoing: 80

Incoming: Then CC(C)(C)OC(=O)N1CCC(C2(C(O)c3ccccn3)CCC2)C1 (stereo not drawn) [Example 265] ?
Outgoing: 43

Incoming: Then OC(c1ccccn1)C1(C2=CCCOC2)CCC1 (single isomer, unassigned) [Example 269] ?
Outgoing: 40

Incoming: Then O[C@H](c1ccccn1)C1(c2cc(C(F)(F)F)ccn2)CCC1 [Example 123] ?
Outgoing: 21

Incoming: Then OC1CC(c2ccnc(C(F)(F)F)c2)(C(O)c2ccccn2)C1 (stereo not drawn) [Example 305] ?
Outgoing: 63

Incoming: Then OC(C1CCc2cccnc21)C1(c2ccc(Cl)c(Cl)c2)CCC1 (stereo not drawn) [Example 167] ?
Outgoing: 9.5

Incoming: Then OC(c1ccccn1)C1(c2ccccc2OC(F)(F)F)CCC1 (stereo not drawn) [Example 10] ?
Outgoing: 0.42

Incoming: Then O=C1CC(c2cccc(C(F)(F)F)c2)(C(O)c2ccccn2)C1 (stereo not drawn) [Example 245] ?
Outgoing: 57

Incoming: Then OC(C1CCc2cccnc21)C1(c2cccc(C(F)(F)F)c2)CCC1 (stereo not drawn) [Example 185] ?
Outgoing: 0.39

Incoming: Then O[C@H](c1ccccn1)[C@@]1(c2ccc(Cl)c(Cl)c2)CCO1 [Example 135] ?
Outgoing: 33

Incoming: Then OC(c1ccccn1)C1(C2CCC(F)(F)CC2)CCC1 (stereo not drawn) [Example 274] ?
Outgoing: 55

Incoming: Then OC(CC1(c2ccc(C(F)(F)F)cc2)CCC1)c1ccccn1 (stereo not drawn) [Example 75] ?
Outgoing: 44

###

I'd be grateful if you could share measured IC50 for these entries.
target: human TRPV3 (Homo sapiens, UniProt Q8NET8); construct: expressed in transfected cells; test: In vitro antagonism of recombinant human TRPV3 activation (FLIPR Tetra calcium assay, 2-APB as agonist); type: cell-based; conditions: HEK293 cells stably expressing human TRPV3; 2-APB 80 μM; range class; read-out: IC50 (reported range)

Incoming: What value of IC50 has been reported for the following compound? OC(C1CCCc2cccnc21)C1(c2cccc(C(F)(F)F)c2)CCC1 (centres unmarked)
Outgoing: 1.1 to 5 µM

Incoming: Then CC1(O)CC(c2cncc(C(F)(F)F)c2)(C(O)c2ccccn2)C1 (centres unmarked) ?
Outgoing: 0.501 to 1 µM

Incoming: Then OC(CC1(c2cccc(C(F)(F)F)c2)CCC1)c1ccccn1 (centres unmarked) ?
Outgoing: 0.05 to 0.5 µM

Incoming: Then OC(c1ncccn1)C1(c2ccc(F)c(F)c2)CCC1 (centres unmarked) ?
Outgoing: 5.1 to 20 µM

Incoming: Then O[C@H](c1ccccn1)C1(c2ccc(C(F)(F)F)cc2)CCC1 ?
Outgoing: 0.05 to 0.5 µM

###

I'd be grateful if you could share measured RAT MICROSOMAL STABILITY (% REMAINING AFTER 30 MINUTES) for these entries.
experiment: In vitro rat microsomal stability assay; assay type: in vitro ADME, rat (Sprague-Dawley); settings: Sprague-Dawley, rat, 0.5 h, 0.5 μM, pH 7.4
The answer is to be given in %; state only the numeric part.

Incoming: What value of RAT MICROSOMAL STABILITY (% REMAINING AFTER 30 MINUTES) has been reported for the following compound? CC1(O)CC(c2ccc(OC(F)(F)F)cc2)(C(O)c2ccccn2)C1 (centres unmarked) [Example 203]
Outgoing: 74

Incoming: Then OC(c1ccccn1)C1(c2ccc(F)cc2)CCC1 (centres unmarked) [Example 3] ?
Outgoing: 3.8

Incoming: Then NC1CCCC1C(O)C1(c2ccc(OC(F)(F)F)cc2)CCC1 (centres unmarked) [Example 206] ?
Outgoing: 62

Incoming: Then CC(c1ccc(F)cc1)C1(C(O)c2ccccn2)CCC1 (centres unmarked) [Example 46] ?
Outgoing: 0.23

Incoming: Then NC1CCCCC1C(O)C1(c2cccc(C(F)(F)F)c2)CCC1 (centres unmarked) [Example 212] ?
Outgoing: 3.9

Incoming: Then OC(c1ccccn1)C1(Cc2cccc(F)c2)CCC1 (centres unmarked) [Example 254] ?
Outgoing: 0.57

Incoming: Then O=C1CC(c2cccc(OC(F)(F)F)c2)([C@@H](O)c2ccccn2)C1 [Example 257] ?
Outgoing: 57

Incoming: Then O/N=C(\c1ccccn1)C1(c2ccc(Cl)c(Cl)c2)CCC1 [Example 230] ?
Outgoing: 30

Incoming: Then OC(c1ccccn1)C1(c2ccccc2F)CCC1 (centres unmarked) [Example 1] ?
Outgoing: 0.48

Incoming: Then OC(c1ccccn1)C1(c2ccc(C(F)(F)F)cc2)CCNCC1 (centres unmarked) [Example 147] ?
Outgoing: 79

Incoming: Then CC(c1cccc(C(F)(F)F)c1)C1(C(O)c2ccccn2)CCC1 (centres unmarked) [Example 54] ?
Outgoing: 0.21

Incoming: Then Cc1cccc(C2(C(O)c3ccccn3)CCC2)c1 (centres unmarked) [Example 8] ?
Outgoing: 0.73

Incoming: Then CC1(O)CC(c2cncc(C(F)(F)F)c2)(C(O)c2ccccn2)C1 (centres unmarked) [Example 308] ?
Outgoing: 13

Incoming: Then OC(c1ccccn1)C1(c2ccc(F)c(F)c2)CCCO1 (centres unmarked) [Example 108] ?
Outgoing: 4.9

Incoming: Then CN[C@@H]1CCC[C@H]1[C@@H](O)C1(c2ccc(Cl)c(Cl)c2)CCC1 [Example 228] ?
Outgoing: 25

Incoming: Then OC(c1ncccn1)C1(c2cccc(OC(F)(F)F)c2)CCC1 (centres unmarked) [Example 37] ?
Outgoing: 7.7

Incoming: Then COC1(OC)CC(c2ccc(OC(F)(F)F)cc2)(C(O)c2ccccn2)C1 (centres unmarked) [Example 129] ?
Outgoing: 0.01

Incoming: Then OC(c1ccccn1)C1(c2cccc(OC(F)(F)F)c2)CCOCC1 (centres unmarked) [Example 66] ?
Outgoing: 23

Incoming: Then OC(c1ccccn1)C1(c2ccc(OC(F)(F)F)cc2)CCOCC1 (centres unmarked) [Example 67] ?
Outgoing: 47

Incoming: Then O=C1CC(c2ccc(F)c(Cl)c2)(C(O)c2ccccn2)C1 (centres unmarked) [Example 258] ?
Outgoing: 53

Incoming: Then Cn1c(C2(C(O)c3ccccn3)CCC2)nc2ccccc21 (centres unmarked) [Example 275] ?
Outgoing: 5.7

Incoming: Then Cc1cc(C(F)(F)F)cc(C2([C@@H](O)c3ccccn3)CC(=O)C2)n1 [Example 291] ?
Outgoing: 53

Incoming: Then Cc1cccnc1[C@@H](O)C1(c2ccc(Cl)c(Cl)c2)CCC1 [Example 30] ?
Outgoing: 0.98

Incoming: Then OC(c1ccccn1)C1(c2ccc(C(F)(F)F)cn2)CCC1 (centres unmarked) [Example 115] ?
Outgoing: 81
